Data origin: ChEMBL document CHEMBL5053468

- experimental system: Membrane-bound ghrelin O-acyltransferase MBOAT4 (Homo sapiens)
- procedure text: Inhibition of human GOAT expressed in baculovirus infected Sf9 cells at 10 uM using octanoyl-CoA and ghrelin-biotin as substrate preincubated for 20 mins followed by substrate addition and measured after = > 1 hr by HTRF assay relative to control
- measurement parameters: time hrs >=1
experimental readout: inhibition (%)
Report the figure in % without appending any unit label.

Here's what some known entries look like.
Cn1nc(C(F)(F)F)cc1COc1cc(Cl)c2c(CC(=O)O)csc2c1F    107
COC(=O)Cc1coc2c(C)c(OCc3ccc(C)nc3C)cc(C)c12    92.7
Cc1nc(C(F)(F)F)ccc1COc1cc(C)c2c(CC(=O)O)csc2c1    99.2
COC(=O)Cc1csc2cc(OCc3cc(C(F)(F)F)nn3C)cc(C)c12    95.2
Cc1nc(C(F)(F)F)ccc1COc1cc(F)c2c(CC(=O)O)csc2c1    102
COC(=O)Cc1c(C)sc2cc(OCc3cc(C(F)(F)F)nn3C)cc(Cl)c12    99.5

Lookup: Any idea what inhibition was measured for CCS(=O)(=O)NC(=O)Cc1csc2cc(OCc3ccc(Cl)cc3Cl)ccc12 ?
Found: 83.2

---

- experimental system: Membrane-bound ghrelin O-acyltransferase MBOAT4 (Homo sapiens) (UniProt Q96T53)
- procedure text: Inhibition of human GOAT expressed in baculovirus infected Sf9 cells at 10 uM using octanoyl-CoA and ghrelin-biotin as substrate preincubated for 20 mins followed by substrate addition and measured after = > 1 hr by HTRF assay relative to control
- measurement parameters: time hrs >=1
experimental readout: inhibition (%)
Express the result in % but write the number alone.

Use the examples below as a reference point.
Cc1nc(C(F)(F)F)ccc1COc1cc(Cl)c2c(CC(=O)O)csc2c1Cl    106
O=C(O)CC1CSc2cc(OCc3ccc(Cl)cc3Cl)ccc21 (stereo unspecified)    99
Cc1ccc(COc2ccc3c(CC(=O)O)csc3c2)c(C)n1    99
Cc1cc(OCc2cc(C(F)(F)F)nn2C)cc2scc(CC(=O)O)c12    104
Cc1nc(C(F)(F)F)ccc1COc1ccc2c(CC(=O)O)csc2c1    93.1

Lookup: I'd like to know its inhibition. The compound in question is Cc1nc(C(F)(F)F)ccc1COc1cc(C)c2c(CC(=O)O)csc2c1C
Found: 105

---

- experimental system: Membrane-bound ghrelin O-acyltransferase MBOAT4 (Homo sapiens) (UniProt Q96T53)
- procedure text: Inhibition of human GOAT expressed in baculovirus infected Sf9 cells at 10 uM using octanoyl-CoA and ghrelin-biotin as substrate preincubated for 20 mins followed by substrate addition and measured after = > 1 hr by HTRF assay relative to control
- measurement parameters: time hrs >=1
This section presents compounds with their documented inhibition values.
# unit: % | format: bare number

Lookup: For the compound shown here, COC(=O)Cc1csc2cc(OCc3cc(C)nn3C)cc(C)c12 , give the reported inhibition.
Found: 94.7

Lookup: Please give the measured inhibition for this compound: Cc1ccc(COc2cc(Cl)c3c(CC(=O)O)csc3c2)c(C)n1
Found: 107

Lookup: For the compound Cc1ccc(COc2cc(C)c3c(c2C)OCC3CC(=O)O)c(C)n1 (stereo unspecified) , what inhibition is on record?
Found: 94.8

Lookup: Which inhibition is reported for this compound? COC(=O)Cc1csc2c(Cl)c(OCc3ccc(C(F)(F)F)nc3C)cc(Cl)c12
Found: 88.1

Lookup: May I ask what inhibition has been recorded for COC(=O)Cc1csc2cc(OCc3ccc(Cl)cc3Cl)cc(C)c12 ?
Found: 84.4

---

- experimental system: Membrane-bound ghrelin O-acyltransferase MBOAT4 (Homo sapiens)
- procedure text: Inhibition of human GOAT expressed in baculovirus infected Sf9 cells at 10 uM using octanoyl-CoA and ghrelin-biotin as substrate preincubated for 20 mins followed by substrate addition and measured after = > 1 hr by HTRF assay relative to control
- measurement parameters: time hrs >=1
experimental readout: inhibition (%)
Express it in %; write the number only.

Look over these answered cases.
Cc1sc2cc(OCc3cc(C(F)(F)F)nn3C)cc(Cl)c2c1CC(=O)O    106
Cn1nc(C(F)(F)F)cc1COc1cc(Cl)c2c(CC(=O)O)csc2c1    105
COC(=O)Cc1csc2cc(OCc3ccc(C(F)(F)F)nc3C)cc(F)c12    94.9
COC(=O)Cc1csc2c(Cl)c(OCc3cc(C(F)(F)F)nn3C)cc(Cl)c12    92.7
Cn1nc(C(F)(F)F)cc1COc1cc(F)c2c(CC(=O)O)csc2c1    104
CCOC(=O)CNC(=O)Cc1csc2cc(OCc3ccc(Cl)cc3Cl)ccc12    56

Lookup: // lookup inhibition for CC(=O)NCCc1coc2cc(OCc3ccc(Cl)cc3Cl)ccc12
Found: 73

Lookup: Reported inhibition, compound CCOC(=O)Cc1csc2cc(OCc3ccc(C)nc3C)ccc12 : ____
Found: 92.8

Lookup: Field request: inhibition | item: COC(=O)Cc1csc2cc(OCc3cc(C)nn3C)cc(Cl)c12
Found: 97.4

---

In this section we review reported inhibition values for a set of compounds.
- experimental system: Membrane-bound ghrelin O-acyltransferase MBOAT4 (Homo sapiens) (UniProt Q96T53)
- procedure text: Inhibition of human GOAT expressed in baculovirus infected Sf9 cells at 10 uM using octanoyl-CoA and ghrelin-biotin as substrate preincubated for 20 mins followed by substrate addition and measured after = > 1 hr by HTRF assay relative to control
- measurement parameters: time hrs >=1
Numeric answer only, unit % assumed.

COC(=O)Cc1coc2c(C)c(OCc3ccc(Cl)cc3Cl)cc(C)c12    68.7
O=C(O)CNC(=O)Cc1csc2cc(OCc3ccc(Cl)cc3Cl)ccc12    95
Cc1nc(C(F)(F)F)ncc1COc1ccc2c(CC(=O)O)csc2c1    97.3
COCC1(C(=O)O)COc2cc(OCc3ccc(Cl)cc3Cl)ccc21 (centres undefined)    85
CCC(=O)NCC[C@@H]1COc2cc(OCc3ccc(Cl)cc3Cl)ccc21    59
COC(=O)Cc1csc2c(C)c(OCc3ccc(C(F)(F)F)nc3C)cc(C)c12    62.8
Cc1ccc(/C=C/c2ccc3c(CC(=O)O)csc3c2)c(C)n1    83.1
COC(=O)Cc1csc2c(F)c(OCc3ccc(C(F)(F)F)nc3C)cc(Cl)c12    88.6
Cc1cc(OCc2cc(C(F)(F)F)nn2C)c(F)c2scc(CC(=O)O)c12    104
Cc1cc(OCc2ccc(Cl)cc2Cl)cc2scc(CC(=O)O)c12    103

Lookup: For the compound shown here, COC(=O)C(CO)NC(=O)Cc1csc2cc(OCc3ccc(Cl)cc3Cl)ccc12 (centres undefined) , give the reported inhibition.
Found: 86

Lookup: Would you mind telling me what inhibition value was observed for Cn1nc(C(F)(F)F)cc1COc1cc(C(F)(F)F)c2c(CC(=O)O)csc2c1 ?
Found: 103

Lookup: May I ask what inhibition has been recorded for Cc1cc(OCc2ccc(Cl)cc2Cl)c(C)c2c1C(CC(=O)O)CO2 (centres undefined) ?
Found: 96.2

Lookup: inhibition for COC(=O)Cc1csc2c(F)c(OCc3cc(C(F)(F)F)nn3C)cc(C)c12 ?
Found: 96.1

Lookup: Look up inhibition for this compound: O=C(O)Cc1csc2cc(SCc3ccc(Cl)cc3Cl)ccc12
Found: 99.3

Lookup: Find the recorded inhibition belonging to Cn1nc(C(F)(F)F)cc1COc1ccc2c(CC(=O)O)csc2c1 and report it.
Found: 98.2

Lookup: Quick one: inhibition for CC(=O)NCC[C@@H]1COc2cc(OCc3ccc(Cl)cc3Cl)ccc21 ?
Found: 69

Lookup: Name the recorded inhibition for COC(=O)Cc1csc2cc(OCc3cc(C(F)(F)F)nn3C)cc(Cl)c12 .
Found: 100

Lookup: inhibition lookup needed for COC(=O)Cc1csc2c(F)c(OCc3ccc(C(F)(F)F)nc3C)cc(C)c12 , thanks.
Found: 94

---

Quick list: inhibition per entry.
- experimental system: Membrane-bound ghrelin O-acyltransferase MBOAT4 (Homo sapiens) (UniProt Q96T53)
- Sequence (whole entry): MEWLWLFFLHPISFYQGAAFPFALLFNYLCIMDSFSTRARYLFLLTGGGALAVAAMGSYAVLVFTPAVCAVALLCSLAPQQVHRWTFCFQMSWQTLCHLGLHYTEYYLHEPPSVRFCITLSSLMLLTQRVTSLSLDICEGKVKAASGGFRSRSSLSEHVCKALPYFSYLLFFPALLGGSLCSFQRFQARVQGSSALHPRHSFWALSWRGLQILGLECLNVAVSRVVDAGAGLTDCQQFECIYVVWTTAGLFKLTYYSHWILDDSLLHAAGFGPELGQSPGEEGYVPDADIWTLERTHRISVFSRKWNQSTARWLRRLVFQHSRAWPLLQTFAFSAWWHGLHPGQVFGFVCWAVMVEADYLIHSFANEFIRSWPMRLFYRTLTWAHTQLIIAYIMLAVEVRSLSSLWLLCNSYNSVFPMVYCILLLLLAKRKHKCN
- procedure text: Inhibition of human GOAT expressed in baculovirus infected Sf9 cells at 10 uM using octanoyl-CoA and ghrelin-biotin as substrate preincubated for 20 mins followed by substrate addition and measured after = > 1 hr by HTRF assay relative to control
- measurement parameters: time hrs >=1
Respond numerically; units are % and should not be typed.

Cc1ccc(COc2cc(C(F)(F)F)c3c(CC(=O)O)csc3c2)c(C)n1    103
COC(=O)Cc1csc2cc(OCc3ccc(C(F)(F)F)nc3C)cc(C)c12    93.8
COC(=O)Cc1csc2cc(OCc3ccc(C(F)(F)F)nc3C)cc(Cl)c12    91.6

Lookup: Fill in the recorded inhibition for this compound, with Membrane-bound ghrelin O-acyltransferase MBOAT4 (Homo sapiens) (UniProt Q96T53) as test system: Cc1ccc(CCc2ccc3c(CC(=O)O)csc3c2)c(C)n1
Found: 97.3

Lookup: Could you share what inhibition was measured for O=C(O)C1(CO)COc2cc(OCc3ccc(Cl)cc3Cl)ccc21 (stereo unspecified) , tested on Membrane-bound ghrelin O-acyltransferase MBOAT4 (Homo sapiens) (UniProt Q96T53)?
Found: 81

Lookup: # value lookup — system Membrane-bound ghrelin O-acyltransferase MBOAT4 (Homo sapiens) (UniProt Q96T53), readout inhibition, item O=C(O)Cc1coc2c(Cl)c(OCc3ccc(Cl)cc3Cl)ccc12
Found: 100
